Cell Number avg (×106), total leukocytes values, listed per item
System: leukocyte infiltration, peritonitis induced by thioglycolate
experiment.description: Peritonitis assay induced by 3% thioglycolate
Format: in vivo
experimental.context: 300 μMol/Kg orally, mouse, 3% thioglycolate i.p., 4 h

Consider the reported Cell Number avg (×106), total leukocytes for these molecules:
{"molecule": "O=C1c2ccccc2C(=O)N1c1cccc(CO[N+](=O)[O-])c1 [Compound IC]", "Cell Number avg (×106), total leukocytes": "3.2 ×106"}
{"molecule": "O=C1c2ccccc2C(=O)N1c1ccc(CCO[N+](=O)[O-])cc1 [Compound IE]", "Cell Number avg (×106), total leukocytes": "4.13 ×106"}

Okay, now this molecule:
Item: O=C1c2ccccc2C(=O)N1c1ccc(CO[N+](=O)[O-])cc1 [ID] | Cell Number avg (×106), total leukocytes: 3.8 ×106
